These entries and their values trace back to ChEMBL document CHEMBL3045090.

- System: Plutella xylostella
- assay.text: Insecticidal activity against third-instar larval stage of Plutella xylostella (diamondback moth) in cabbage leaves assessed as mortality at 10 ug/ml treated for 10 secs before larva infestation measured after 2 days by dipping method
- Type: functional
- assay.setup: 48 h
endpoint.name: mortality at 10 µg/mL (%)
Just the number in %, nothing appended.

Find the recorded mortality at 10 µg/mL belonging to CC(C)(CS(C)(=O)=O)NC(=O)c1c(I)cccc1C(=O)Nc1ccc(Cl)c(C(F)(F)F)c1 and report it.
100

Find the recorded mortality at 10 µg/mL belonging to CC(C)(C)NC(=O)c1c(I)cccc1C(=O)Nc1ccc(Cl)c(C(F)(F)F)c1 and report it.
20

Find the recorded mortality at 10 µg/mL belonging to CC(C)(CS(C)(=O)=O)NC(=O)c1c(I)cccc1C(=O)Nc1ccc(F)c(C(F)(F)F)c1 and report it.
100

Find the recorded mortality at 10 µg/mL belonging to CSCC(C)(C)NC(=O)c1c(I)cccc1C(=O)Nc1ccc(Cl)c(C(F)(F)F)c1 and report it.
100

Find the recorded mortality at 10 µg/mL belonging to CSCC(C)(C)NC(=O)c1c(I)cccc1C(=O)Nc1ccc(F)c(C(F)(F)F)c1 and report it.
100

###

Kindly state mortality at 1 µg/mL for each of the entries shown.
- System: Plutella xylostella
- assay.text: Insecticidal activity against third-instar larval stage of Plutella xylostella (diamondback moth) in cabbage leaves assessed as mortality at 1 ug/ml treated for 10 secs before larva infestation measured for 3 days by dipping method
- Type: functional
- assay.setup: 72 h
Just the number in %, nothing appended.

Find the recorded mortality at 1 µg/mL belonging to CSCC(C)(C)NC(=O)c1c(I)cccc1C(=O)Nc1ccc(Cl)c(C(F)(F)F)c1 and report it.
62

Find the recorded mortality at 1 µg/mL belonging to CC(C)(CS(C)(=O)=O)NC(=O)c1c(I)cccc1C(=O)Nc1ccc(Cl)c(C(F)(F)F)c1 and report it.
52

Find the recorded mortality at 1 µg/mL belonging to CSCC(C)(C)NC(=O)c1c(I)cccc1C(=O)Nc1ccc(F)c(C(F)(F)F)c1 and report it.
33

Find the recorded mortality at 1 µg/mL belonging to CC(C)(CS(C)(=O)=O)NC(=O)c1c(I)cccc1C(=O)Nc1ccc(F)c(C(F)(F)F)c1 and report it.
29

Find the recorded mortality at 1 µg/mL belonging to Cc1cc(C(F)(C(F)(F)F)C(F)(F)F)ccc1NC(=O)c1cccc(I)c1C(=O)NC(C)(C)CS(C)(=O)=O [FLUBENDIAMIDE] and report it.
95

###

Kindly state mortality at 0.1 µg/mL for each of the entries shown.
- Test system: Plutella xylostella
- assay.text: Insecticidal activity against third-instar larval stage of Plutella xylostella (diamondback moth) in cabbage leaves assessed as mortality at 0.1 ug/ml treated for 10 secs before larva infestation measured for 3 days by dipping method
- Type: functional
- assay.setup: 72 h
Just the number in %, nothing appended.

Find the recorded mortality at 0.1 µg/mL belonging to Cc1cc(C(F)(C(F)(F)F)C(F)(F)F)ccc1NC(=O)c1cccc(I)c1C(=O)NC(C)(C)CS(C)(=O)=O [FLUBENDIAMIDE] and report it.
20

Find the recorded mortality at 0.1 µg/mL belonging to CC(C)(CS(C)(=O)=O)NC(=O)c1c(I)cccc1C(=O)Nc1ccc(Cl)c(C(F)(F)F)c1 and report it.
4.8

Find the recorded mortality at 0.1 µg/mL belonging to CC(C)(CS(C)(=O)=O)NC(=O)c1c(I)cccc1C(=O)Nc1ccc(F)c(C(F)(F)F)c1 and report it.
0

Find the recorded mortality at 0.1 µg/mL belonging to CSCC(C)(C)NC(=O)c1c(I)cccc1C(=O)Nc1ccc(F)c(C(F)(F)F)c1 and report it.
0

Find the recorded mortality at 0.1 µg/mL belonging to CSCC(C)(C)NC(=O)c1c(I)cccc1C(=O)Nc1ccc(Cl)c(C(F)(F)F)c1 and report it.
0

###

- Test system: Plutella xylostella
- assay.text: Insecticidal activity against third-instar larval stage of Plutella xylostella (diamondback moth) in cabbage leaves assessed as mortality at 10 ug/ml treated for 10 secs before larva infestation measured after 2 days by dipping method
- Format: functional
- assay.setup: 48 h
Kindly state mortality at 10 µg/mL for each of the entries shown.
Just the number in %, nothing appended.

Find the recorded mortality at 10 µg/mL belonging to CSCC(C)(C)NC(=O)c1c(I)cccc1C(=O)Nc1cc(F)cc(C(F)(F)F)c1 and report it.
43

Find the recorded mortality at 10 µg/mL belonging to CSCC(C)(C)NC(=O)c1c(I)cccc1C(=O)Nc1cccc(C(F)(F)F)c1 and report it.
90

Find the recorded mortality at 10 µg/mL belonging to CC(C)(CS(C)(=O)=O)NC(=O)c1c(I)cccc1C(=O)Nc1cc(F)cc(C(F)(F)F)c1 and report it.
57

Find the recorded mortality at 10 µg/mL belonging to CC(C)(CS(C)(=O)=O)NC(=O)c1c(I)cccc1C(=O)Nc1ccc(C#N)c(C(F)(F)F)c1 and report it.
0

Find the recorded mortality at 10 µg/mL belonging to CC(C)(CS(C)(=O)=O)NC(=O)c1c(I)cccc1C(=O)Nc1cccc(C(F)(F)F)c1 and report it.
95

Find the recorded mortality at 10 µg/mL belonging to CSCC(C)(C)NC(=O)c1c(I)cccc1C(=O)Nc1ccc(C#N)c(C(F)(F)F)c1 and report it.
6

Find the recorded mortality at 10 µg/mL belonging to CC(C)(C)NC(=O)c1c(I)cccc1C(=O)Nc1cccc(C(F)(F)F)c1 and report it.
50

Find the recorded mortality at 10 µg/mL belonging to COCC(C)(C)NC(=O)c1c(I)cccc1C(=O)Nc1cccc(C(F)(F)F)c1 and report it.
0

Find the recorded mortality at 10 µg/mL belonging to Cc1cc(C(F)(C(F)(F)F)C(F)(F)F)ccc1NC(=O)c1cccc(I)c1C(=O)NC(C)(C)CS(C)(=O)=O [FLUBENDIAMIDE] and report it.
67

###

- Tested on: Plutella xylostella
- assay.text: Insecticidal activity against third-instar larval stage of Plutella xylostella (diamondback moth) in cabbage leaves assessed as mortality at 0.5 ug/ml treated for 10 secs before larva infestation measured for 3 days by dipping method
- Assay type: functional
- assay.setup: 72 h
Kindly state mortality at 0.5 µg/mL for each of the entries shown.
Just the number in %, nothing appended.

Find the recorded mortality at 0.5 µg/mL belonging to CC(C)(CS(C)(=O)=O)NC(=O)c1c(I)cccc1C(=O)Nc1ccc(F)c(C(F)(F)F)c1 and report it.
5

Find the recorded mortality at 0.5 µg/mL belonging to CC(C)(CS(C)(=O)=O)NC(=O)c1c(I)cccc1C(=O)Nc1ccc(Cl)c(C(F)(F)F)c1 and report it.
29

Find the recorded mortality at 0.5 µg/mL belonging to Cc1cc(C(F)(C(F)(F)F)C(F)(F)F)ccc1NC(=O)c1cccc(I)c1C(=O)NC(C)(C)CS(C)(=O)=O [FLUBENDIAMIDE] and report it.
90

Find the recorded mortality at 0.5 µg/mL belonging to CSCC(C)(C)NC(=O)c1c(I)cccc1C(=O)Nc1ccc(F)c(C(F)(F)F)c1 and report it.
0

Find the recorded mortality at 0.5 µg/mL belonging to CSCC(C)(C)NC(=O)c1c(I)cccc1C(=O)Nc1ccc(Cl)c(C(F)(F)F)c1 and report it.
57
